tested on: ducksalad (Heteranthera limosa); assay: Test C flooded paddy test plant response; format: in vivo; details: Flood, 250 g ai/ha; scale of 0 to 100 where 0 is no effect and 100 is complete control; 13 to 15 days
Quick list: Ducksalad plant response rating per entry.
Quick one: just the number, no unit, thanks!

// below: answered compounds
[[record]]
compound_structure_string = "Clc1cnc(Oc2ccccc2-c2ccc(Cl)nn2)nc1"
quantitative_readout = 0

[[record]]
compound_structure_string = "Fc1cnc(Oc2ccccc2-c2cc(Cl)sn2)nc1"
quantitative_readout = 65

[[record]]
compound_structure_string = "FC(F)(F)c1ccnc(-c2ccccc2Oc2ncc(Br)cn2)c1"
quantitative_readout = 0


Q) Could you share which Ducksalad plant response rating value was measured for N#Cc1cccc(Oc2ncc(F)cn2)c1-c1ccc(Cl)cn1 ?
A) 30

Q) I would be grateful if you could share the reported Ducksalad plant response rating for COc1cccc(Oc2ncc(F)cn2)c1-c1cc(C)no1 .
A) 0
